Origin of the recorded values: patent US11667638B2

# target: (α4)3(β2)2 nAChRs (Homo sapiens (Human), UniProt P17787+P43681)
# Sequence (P43681 29-627): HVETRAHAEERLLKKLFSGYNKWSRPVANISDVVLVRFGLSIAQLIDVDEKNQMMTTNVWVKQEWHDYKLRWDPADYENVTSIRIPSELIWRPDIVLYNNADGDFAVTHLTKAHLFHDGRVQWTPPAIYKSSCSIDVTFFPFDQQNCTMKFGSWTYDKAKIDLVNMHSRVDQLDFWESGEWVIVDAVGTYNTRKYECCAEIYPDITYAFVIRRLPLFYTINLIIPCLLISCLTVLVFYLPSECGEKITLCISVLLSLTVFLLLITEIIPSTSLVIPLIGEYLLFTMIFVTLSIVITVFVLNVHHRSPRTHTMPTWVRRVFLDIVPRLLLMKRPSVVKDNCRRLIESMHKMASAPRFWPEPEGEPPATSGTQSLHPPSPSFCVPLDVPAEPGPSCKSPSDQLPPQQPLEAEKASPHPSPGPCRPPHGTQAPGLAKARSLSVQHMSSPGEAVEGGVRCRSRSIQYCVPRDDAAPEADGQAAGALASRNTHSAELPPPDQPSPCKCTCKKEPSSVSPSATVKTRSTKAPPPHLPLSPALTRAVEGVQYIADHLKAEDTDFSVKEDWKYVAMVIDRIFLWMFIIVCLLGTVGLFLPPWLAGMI
# Sequence (P17787 26-502): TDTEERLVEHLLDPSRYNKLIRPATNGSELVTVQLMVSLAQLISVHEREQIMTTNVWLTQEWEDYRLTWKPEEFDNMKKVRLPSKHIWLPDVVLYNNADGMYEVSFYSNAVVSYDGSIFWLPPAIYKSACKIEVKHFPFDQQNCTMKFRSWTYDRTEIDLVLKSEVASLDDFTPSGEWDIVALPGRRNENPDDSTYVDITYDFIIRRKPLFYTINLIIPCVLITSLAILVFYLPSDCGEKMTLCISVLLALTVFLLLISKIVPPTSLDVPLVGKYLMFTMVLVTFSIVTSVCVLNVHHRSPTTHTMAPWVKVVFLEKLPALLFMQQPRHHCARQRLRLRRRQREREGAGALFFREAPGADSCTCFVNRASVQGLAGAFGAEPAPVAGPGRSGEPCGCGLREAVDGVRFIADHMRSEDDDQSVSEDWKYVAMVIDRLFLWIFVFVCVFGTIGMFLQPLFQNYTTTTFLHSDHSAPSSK
# assay-overview: Maximal gating efficacy on (α4)3(β2)2 nAChRs in Xenopus oocytes, two electrode voltage clamp
# Type: cell-based
# measurement-context: (α4)3(β2)2, low sensitivity stoichiometry; maximal current relative to 1 mM ACh
Use Yes when the recorded Relative efficacy (ACh) is no lower than 0.1; use No when it is lower.

Answered examples (3):
O=c1cc(O)cc2n1CC1CNC[C@@H]2C1 (single isomer, unassigned; (+)) [Compound 67, (+)4-Hydroxycytisine] | No
Cl.O=c1cc(-c2c(F)c(F)c(F)c(F)c2F)cc2n1CC1CNC[C@@H]2C1 (single isomer, unassigned; (-)) [Compound 75, (−)4-(Perfluorophenyl)cytisine] | No
O=c1cccc2n1C[C@@H]1CNC[C@H]2C1 | Yes

Lookup: Textbook exercise: given the entry CC(=O)OCC[N+](C)(C)C [ACh, reference compound] , state whether its Relative efficacy (ACh) is greater than or equal to 0.1.
Found: Yes

Lookup: Textbook exercise: given the entry Cl.O=c1c(C(F)(F)F)c(Br)cc2n1CC1CNC[C@@H]2C1 (single isomer, unassigned; (-)) [Compound 162, (−)3-(Trifluoromethyl)-4-bromocytisine] , state whether its Relative efficacy (ACh) is greater than or equal to 0.1.
Found: No

Lookup: Textbook exercise: given the entry O=c1cc(Cl)cc2n1CC1CNC[C@@H]2C1 (single isomer, unassigned; (-)) [Compound 60, (−)4-Chlorocytisine] , state whether its Relative efficacy (ACh) is greater than or equal to 0.1.
Found: Yes
